All values here come from ChEMBL document CHEMBL1141691.

Overview of recorded MIC for various compounds
Tested on: Escherichia coli
Assay Name: Antibacterial activity against wild-type Escherichia coli MC4100 by microbroth dilution susceptibility assay
Format: functional
Field: numeric (µg/mL). Do not append units.

What the record says about CCC(N)C1CCN(c2c(F)cc3c(=O)n(N)c(=O)n(C4CC4)c3c2C)C1 (stereo unspecified) : MIC is 8

What the record says about CCN[C@@H](C)[C@@H]1CCN(c2c(F)cc3c(=O)n(N)c(=O)n(C4CC4)c3c2C)C1 : MIC is 8

What the record says about Cc1c(N2CC[C@@H]([C@H](C)N)C2)c(F)cc2c(=O)n(N)c(=O)n(C3CC3)c12 : MIC is 0.5

What the record says about Cc1c(N2CC[C@@H]([C@@H](C)N)C2)c(F)cc2c(=O)n(N)c(=O)n(C3CC3)c12 : MIC is 2

What the record says about Cc1c(N2CCC(C(C)N)C2)c(F)cc2c(=O)n(N)c(=O)n(C3CC3)c12 (stereo unspecified) : MIC is 4

What the record says about Cc1c(N2CCNCC2)c(F)cc2c(=O)n(N)c(=O)n(C3CC3)c12 : MIC is 4

What the record says about Cc1c(N2CCC(C(C)(C)N)C2)c(F)cc2c(=O)n(N)c(=O)n(C3CC3)c12 (stereo unspecified) : MIC is 16

What the record says about Cc1c(N2CCCC2)c(F)cc2c(=O)n(N)c(=O)n(C3CC3)c12 : MIC is 16

What the record says about Cc1c(N2CC[C@H]([C@@H](C)N)C2)c(F)cc2c(=O)n(N)c(=O)n(C3CC3)c12 : MIC is 2
